pIC50: −log10 of the molar value.
Recorded endpoint: pIC50

Value (pIC50, Beta-secretase 1 (Homo sapiens, UniProt P56817)) for record COCCCOc1cc(C[C@@H](C[C@H](N)[C@@H](O)C[C@H](C(=O)NCC(C)(C)C(N)=O)C(C)C)C(C)C)ccc1OC.Cl = < 5.00

----------
Test description: physchem
Please provide measured pKa for the entries that follow.
I only need the number, thanks.

According to the records, this compound COCCCCc1cc(C[C@@H](C[C@H](N)[C@@H](O)C[C@H](C(=O)NCCN2CCOCC2)C(C)C)C(C)C)ccc1OC.Cl displays pKa of 6.01

According to the records, this compound COCCCOc1cc(C[C@@H](C[C@H](N)[C@@H](O)C[C@H](C(=O)NCCC(=O)N(C)C)C(C)C)C(C)C)ccc1OC displays pKa of 9.4

According to the records, this compound COCCCOc1cc(C[C@@H](C[C@H](N)[C@@H](O)C[C@H](C(=O)NC[C@H]2CCC(=O)N2)C(C)C)C(C)C)ccc1OC.Cl displays pKa of 9.09

According to the records, this compound COCCCCc1cc(C[C@@H](C[C@H](N)[C@@H](O)C[C@H](C(=O)NCC(C)(C)C(N)=O)C(C)C)C(C)C)ccc1OC.Cl displays pKa of 9.44

According to the records, this compound COCCCOc1cc(C[C@@H](C[C@H](N)[C@@H](O)C[C@H](C(=O)NCC(C)(C)C(N)=O)C(C)C)C(C)C)ccc1OC.COCCCOc1cc(C[C@@H](C[C@H](N)[C@@H](O)C[C@H](C(=O)NCC(C)(C)C(N)=O)C(C)C)C(C)C)ccc1OC.O=C(O)/C=C/C(=O)O [ALISKIREN FUMARATE] displays pKa of 9.2
